Recorded values, source ChEMBL document CHEMBL1201862.

Please go through the items and note down their GI50.
Tested on: XF498
experiment: NCI tumour cell line growth inhibition, 48 h
Active and inactive are the calls of the source. No stated cut-off is given here; in the data, active = GI50 up to about 1.1 µM and inactive = higher.

[in] Consider the molecule CCN1CCC(O)(c2ccc(C)cc2)C(C(=O)c2ccc(C)cc2)C1 (stereo not drawn) . State its measured GI50.
[out] 18 µM (inactive)

[in] Quick one: give measured GI50 for CC(C)(C)C1CC[C@H]2c3c([nH]c4ccccc34)[C@H]3C(=O)N(c4ccc(F)cc4)C(=O)[C@H]3[C@H]2C1 (stereo partly drawn)
[out] 14.2 µM (inactive)

[in] Look up and report measured GI50 for this entry: Cc1cc([N+](=O)[O-])c(S(=O)(=O)c2ccccc2)c([N+](=O)[O-])c1
[out] 4.35 µM (inactive)
